- Subject Of Test: T1, human GLP-1 receptor (human, UniProt P43220 24-463)
- T1 construct: whole, on cells
- Method Description: competitive binding (SPA): displacement of 125I-GLP-1(7-36)NH2 from BHK cell membranes with human GLP-1 receptor; high HSA (2.0% final)
Numbered stars: 1 amine (or outer) side, 2 acyl side, 3 side chain; on linkers, the order of the positions; unused ones are H or OH. Square brackets hold non-standard residues; d marks the D form. Side chains are listed from the residue outwards. Ends that are not written are not given here. * marks the point of attachment. C22 diacid = O=C(O)CCCCCCCCCCCCCCCCCCCCC(=O)*; C20 diacid = O=C(O)CCCCCCCCCCCCCCCCCCC(=O)*; γGlu = O=C(O)[C@H](CCC(=O)[*:2])N[*:1]; εLys = N[C@@H](CCCCN[*:1])C(=O)[*:2]; Trx = NC[C@H]1CC[C@H](C(=O)O)CC1; AEEA = NCCOCCOCC(=O)O; Aib = CC(C)(N)C(=O)O
Value Type: pIC50
On this scale, pIC50 is minus log10 of a concentration expressed in M (mol/L).

>  <Binder>
H[Aib]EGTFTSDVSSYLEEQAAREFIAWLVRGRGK([AEEA-AEEA-AEEA-AEEA-εLys-εLys-C20 diacid])GGSK([AEEA-AEEA-AEEA-AEEA-εLys-εLys-C20 diacid]) (Double-acylated, C-terminally extended GLP-1 analogue made by SPPS; also called 25)

>  <pIC50>
7.42

$$$$

QUERY: Bench note: what pIC50 did H[Aib]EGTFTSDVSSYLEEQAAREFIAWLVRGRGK([AEEA-AEEA-AEEA-AEEA-γGlu-C20 diacid])GGSK([AEEA-AEEA-AEEA-AEEA-γGlu-C20 diacid]) (Double-acylated, C-terminally extended GLP-1 analogue made by SPPS; also called 19) show?
RESULT: 6.85

QUERY: Bench note: what pIC50 did HXEGTFTSDVSSYLEEQAAREFIAWLVRGRGKGGSK (Aib at position 8; N-epsilon of Lys38 and of Lys42 each acylated with C20 diacid (19-carboxynonadecanoyl)-gGlu-TotaGlyc (GLP-1(7-37) numbering = sequence-listing position + 6), Double-acylated, C-terminally extended GLP-1 analogue made by SPPS; The printed name has 'AAib8' (typographic slip for Aib8); also called 22) show?
RESULT: 6.71

QUERY: Bench note: what pIC50 did H[Aib]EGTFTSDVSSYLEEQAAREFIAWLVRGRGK([AEEA-AEEA-γGlu-Trx-C22 diacid])GGSK([AEEA-AEEA-γGlu-Trx-C22 diacid]) (Double-acylated, C-terminally extended GLP-1 analogue made by SPPS) show?
RESULT: 7.68

Ref: patent US20150011462A1
